# assay name: Cytotoxicity against African green monkey Vero cells assessed as cell viability at 62.5 ug/ml by MTT assay
# Format: cell-based
# experimental parameters: chlorocebus sabaeus, read-out: Activity

{"compound": "O=C1CSC(c2cccc([N+](=O)[O-])c2)N1CCN1CCOCC1 (configuration not stated)", "viability at 62.5 ug/ml": "100%"}
{"compound": "COc1ccc(C2SCC(=O)N2CCN2CCOCC2)cc1 (configuration not stated)", "viability at 62.5 ug/ml": "100%"}
{"compound": "O=C1CSC(c2ccccc2[N+](=O)[O-])N1CCN1CCOCC1 (configuration not stated)", "viability at 62.5 ug/ml": "98%"}
{"compound": "O=C1CSC(c2ccc(F)cc2)N1CCN1CCOCC1 (configuration not stated)", "viability at 62.5 ug/ml": "100%"}
{"compound": "O=C1CSC(c2ccc(Cl)cc2)N1CCN1CCOCC1 (configuration not stated)", "viability at 62.5 ug/ml": "87%"}
{"compound": "O=C1CSC(c2ccc(O)cc2)N1CCN1CCOCC1 (configuration not stated)", "viability at 62.5 ug/ml": "83%"}
{"compound": "Cc1ccc(C2SCC(=O)N2CCN2CCOCC2)cc1 (configuration not stated)", "viability at 62.5 ug/ml": "87%"}
